Provenance of the data: PubChem BioAssay AID1159580

- Assay Procedure: chemical genetic growth profiling, strain panel (AID 1159580);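 note: tested at 20 µM; growth read once vehicle control cultures reached saturation at 30 °C; 1 = growth at the plate median or of vehicle wells; lower values mean less growth of the strain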
- Measurement Parameters: S. cerevisiae deletion strains, growth OD, locus YLR262C, strain YPT6, stronger effect = lower value
The whole screen tested about 5,500 compounds, of which about 2,000 (36%) were called active. Not shown: some 18% with an inconclusive outcome. The list shows a part of the results.
Experimental Readout: normalized growth
Number only, no unit.

>  <Compound>
CC(Cc1cccc(C(F)(F)F)c1)NCCOC(=O)c1ccccc1 (configuration not stated)

>  <Recorded Measurement>
1.01

$$$$
>  <Compound>
O=C(O)C1=CCCNC1

>  <Recorded Measurement>
0.999

$$$$
>  <Compound>
C=C(C)C1CCC(C)(O)C2CC3OC3(C)C2C1 (configuration not stated)

>  <Recorded Measurement>
0.999

$$$$
>  <Compound>
O=C(O)CCCNCc1cccc2ccccc12

>  <Recorded Measurement>
0.999

$$$$
>  <Compound>
Cc1cccc(C)c1N=C1SCCS1

>  <Recorded Measurement>
0.978

$$$$
>  <Compound>
OC(c1ccccc1)(c1ccccc1)c1ccncc1

>  <Recorded Measurement>
0.997

$$$$

The recorded normalized growth for entry `CC(C)(C)c1cc(C(=O)NNC(=O)c2cc(C(F)(F)F)cc(C(F)(F)F)c2)n(Cc2ccc(F)cc2)n1` equals 1.02

====

- Assay Procedure: chemical genetic growth profiling, strain panel (AID 1159580)
- Measurement Parameters: S. cerevisiae deletion strains, growth OD, locus YGL240W, strain doc1, stronger effect = lower value
The campaign covered roughly 5,500 compounds. About 2,000 (36%) were called active. Another 18% or so got no clear call; they are omitted. This is one part of the list.
Consider the following compounds and their measured normalized growth readings.
Give a plain numeric answer without units written out.

CCN1CCN(C(=O)NC(C(=O)N[C@@H]2C(=O)N3[C@@H]2SC(C)(C)[C@@H]3C(=O)O)c2ccccc2)C(=O)C1=O (stereo partly specified) yielded normalized growth of 0.975

Lab note: `O=C(O)C1=CCCNC1` gave normalized growth of 0.986

Lab note: measured normalized growth of `CN(C)[C@@H]1C(=O)C(C(N)=O)=C(O)[C@@]2(O)C(=O)C3=C(O)c4c(O)ccc(Cl)c4[C@@](C)(O)[C@H]3C[C@@H]12` was 0.982

Summary for this compound, CC(=O)O[C@H]1CCC2(C)C3=C(CCC2C1(C)C)[C@]1(C)CCC(C(C)CCC=C(C)C)[C@@]1(C)CC3 (stereo partly specified) : normalized growth is 0.988

Quick note, normalized growth for `CC(=O)Nc1ccc(S(=O)(=O)Nc2onc(C)c2C)cc1` landed at 0.981

`O=C(O)c1cc(O)c2c(c1)[C@@H]([C@H]1c3cc(C(=O)O)cc(O)c3C(=O)c3c(O[C@H]4O[C@H](CO)[C@@H](O)[C@H](O)[C@H]4O)cccc31)c1cccc(O[C@H]3O[C@H](CO)[C@@H](O)[C@H](O)[C@H]3O)c1C2=O` yielded normalized growth of 0.989

====

- Assay Procedure: chemical genetic growth profiling, strain panel (AID 1159580)
- Measurement Parameters: S. cerevisiae deletion strains, growth OD, locus YKL085W, strain MDH1, stronger effect = lower value
The whole screen tested about 5,500 compounds, of which about 2,000 (36%) were called active. About 18% were inconclusive and are not listed. This is one part of the list.
Experimental Readout: normalized growth
Field format: numeric only.

See these solved cases before continuing.
>  <Compound>
CC(=O)c1ccc(O)c(CC=C(C)C)c1

>  <Experimental Readout>
normalized growth

>  <Recorded Measurement>
0.951

$$$$
>  <Compound>
CS(=O)(=O)c1ccc([C@@H](O)[C@@H](CO)NC(=O)C(Cl)Cl)cc1

>  <Experimental Readout>
normalized growth

>  <Recorded Measurement>
0.988

$$$$
>  <Compound>
NC(=O)NC(=O)Cc1ccccc1

>  <Experimental Readout>
normalized growth

>  <Recorded Measurement>
0.994

$$$$

For record CC(C)CCCC(C)C1CCC2C3CC(=O)[C@H]4C[C@@H](O)CC[C@]4(C)C3CC[C@]12C (stereo partly specified) the listed normalized growth is 1.01

The compound listed as `C/C1=C/CC(C)(C)/C=C/C/C(C)=C/CC1` has a reported normalized growth of 0.963

# normalized growth (compound: C/C1=C\CC(C)(C)/C=C/CC2(C)OC2CC1 (stereo unspecified) ) is 1.01

Form field normalized growth, entry `CC(C)=CCc1c2c(c3occ(-c4ccc(O)c(O)c4)c(=O)c3c1O)C=CC(C)(C)O2` : 0.947

The compound identified as `O=C(O)C1=CCCNC1` registered its normalized growth at 0.973

// recorded normalized growth for CC(Cc1cccc(C(F)(F)F)c1)NCCOC(=O)c1ccccc1 (stereo unspecified) : 0.998

# normalized growth (compound: `C=C1c2cccc(O)c2C(O)=C2C(=O)[C@]3(O)C(O)=C(C(N)=O)C(=O)[C@@H](N(C)C)[C@@H]3[C@@H](O)[C@H]12` ) is 0.978

Data point: `CC(=O)Oc1ccc(C(c2ccc(OC(C)=O)cc2)c2ccccn2)cc1` ; normalized growth = 0.986

What the record says about `NCC(=O)c1ccccc1` : normalized growth is 0.988

According to the records, this compound CC(C)CCCC(C)[C@H]1CCC2C3CC[C@@H]4C[C@H](O)CC[C@]4(C)C3CC[C@@]21C (stereo partly specified) displays normalized growth of 1.01

The compound CC(C)CCCC(C)C1CCC2C3CC[C@H]4C[C@@H](O)CC[C@]4(C)C3CC[C@]12C (stereo partly specified) showed normalized growth equal to 0.994

The recorded normalized growth for CC12CCC(O)CC1CCC1C2[C@H](O)CC2(C)C(C3=CC(=O)OC3)CCC12O (stereo partly specified) is 1

// normalized growth lookup, compound = `CC(=O)Oc1ccc(/C=C/c2cc(OC(C)=O)cc(OC(C)=O)c2)cc1` , result: 0.999

====

- Assay Procedure: chemical genetic growth profiling, strain panel (AID 1159580);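 note: tested at 20 µM; growth read once vehicle control cultures reached saturation at 30 °C; 1 = growth at the plate median or of vehicle wells; lower values mean less growth of the strain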
- Measurement Parameters: S. cerevisiae deletion strains, growth OD, locus YJL154C, strain vps35, stronger effect = lower value
In all, about 5,500 compounds went through this assay and about 2,000 (36%) were called active. Another 18% or so got no clear call; they are omitted. The list shows a part of the results.
Reported normalized growth values for a set of compounds
The reply should be a number, written without any unit.

>  <Compound>
CN(C)[C@@H]1C(=O)C(C(N)=O)=C(O)[C@@]2(O)C(=O)C3=C(O)c4c(O)ccc(Cl)c4[C@@H](O)[C@H]3C[C@@H]12

>  <normalized growth>
0.976

$$$$
>  <Compound>
O=C(O)c1cccnc1

>  <normalized growth>
0.977

$$$$
>  <Compound>
CC(C)CCCC(C)C1CCC2C3CC(=O)[C@H]4C[C@@H](O)CC[C@]4(C)C3CC[C@]12C (stereo partly drawn)

>  <normalized growth>
1.02

$$$$

For `CC(=O)Oc1ccc(C(c2ccc(OC(C)=O)cc2)c2ccccn2)cc1` the compound record lists normalized growth as 1.01

Sample `C/C1=C/CC(C)(C)/C=C/C/C(C)=C/CC1` ; normalized growth observed: 0.981

Note to self: normalized growth recorded for `CC[N+](C)(C)c1cccc(O)c1` was 1

normalized growth in this record for `CN(C)CCCN1c2ccccc2Sc2ccc(C(F)(F)F)cc21` : 1.01

For `CN(C)CCCN1c2ccccc2Sc2ccccc21` the compound record lists normalized growth as 0.977

====

Overview of recorded normalized growth for various compounds
- Assay Procedure: chemical genetic growth profiling, strain panel (AID 1159580);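 note: tested at 20 µM; growth read once vehicle control cultures reached saturation at 30 °C; 1 = growth at the plate median or of vehicle wells; lower values mean less growth of the strain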
- Measurement Parameters: S. cerevisiae deletion strains, growth OD, locus YLL001W, strain dnm1, stronger effect = lower value
The campaign covered roughly 5,500 compounds. About 2,000 (36%) were called active. Inconclusive results (about 18%) are left out. The list shows a part of the results.
Give a plain numeric answer without units written out.

Solved cases (3 shown):
>  <Compound>
O=C(NCO)c1cccnc1

>  <normalized growth>
0.992

$$$$
>  <Compound>
CC(=O)c1ccc(O)c(CC=C(C)C)c1

>  <normalized growth>
0.945

$$$$
>  <Compound>
CN(C)CCCN1c2ccccc2CCc2ccc(Cl)cc21

>  <normalized growth>
1.01

$$$$

`COc1cc(C(C)=O)cc(OC)c1O` yielded normalized growth of 1.01

====

- Assay Procedure: chemical genetic growth profiling, strain panel (AID 1159580);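 note: tested at 20 µM; growth read once vehicle control cultures reached saturation at 30 °C; 1 = growth at the plate median or of vehicle wells; lower values mean less growth of the strain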
- Measurement Parameters: S. cerevisiae deletion strains, growth OD, locus YBR231C, strain swc5, stronger effect = lower value
Hit rate of the full screen: of about 5,500 compounds, about 2,000 (36%) were called active. Inconclusive results (about 18%) are left out. Some of the results follow.
// classify: if (normalized growth < 1) 1 else -1

// below: answered molecules
>  <Molecule>
CC1=CC(=O)c2c(O)cccc2C1=O

>  <Qualitative Label>
1

$$$$
>  <Molecule>
CC(N=C(NC#N)Nc1ccncc1)C(C)(C)C (stereo unspecified)

>  <Qualitative Label>
1

$$$$
>  <Molecule>
CC(C)=CCc1c2c(c3occ(-c4ccc(O)c(O)c4)c(=O)c3c1O)C=CC(C)(C)O2

>  <Qualitative Label>
1

$$$$
>  <Molecule>
CN(C)CCCN1c2ccccc2Sc2ccc(C(F)(F)F)cc21

>  <Qualitative Label>
-1

$$$$

Exam item: Please check: normalized growth for `Oc1c(Cl)cc(Cl)cc1Sc1cc(Cl)cc(Cl)c1O` , strictly under 1 or not?
Marked response: 1
